system: Rattus norvegicus; assay: Ratio of urinary excretion value (urinary volume) in treated rats to that in control rats, at a peroral dose of 25 mg/Kg; assay type: functional, Urine
Items are presented alongside their recorded T/C.
Please give only the number in your answer, with no unit.

Previously resolved entries follow.
cpdSmiles: CCCn1c(=O)c2nc(C34CC5CC(CC3C5)C4)[nH]c2n(CCC)c1=O
experimentalReadout: T/C
testResult: 4.15

cpdSmiles: Cn1c(=O)c2nc(-c3ccccc3)[nH]c2n(C)c1=O
experimentalReadout: T/C
testResult: 1.38

cpdSmiles: FC(F)(F)c1nnc2c(NC3CCCC3)nc3ccc(Cl)cc3n12
experimentalReadout: T/C
testResult: 1.91

cpdSmiles: CCCn1c(=O)c2nc(C3C(C)(C)CCC3(C)C)[nH]c2n(CCC)c1=O
experimentalReadout: T/C
testResult: 1.4

cpdSmiles: CCCn1c(=O)[nH]c(=O)c2[nH]c(C34CC5CC(CC3C5)C4)nc21
experimentalReadout: T/C
testResult: 1.43

Sample CCCn1c(=O)c2[nH]c(C3CCCC3)nc2n(CCC)c1=O ; T/C observed: 1.93

* * *

Molecular target: Adenosine receptor A1 (Cavia porcellus, UniProt P47745)
Sequence (P47745 whole entry): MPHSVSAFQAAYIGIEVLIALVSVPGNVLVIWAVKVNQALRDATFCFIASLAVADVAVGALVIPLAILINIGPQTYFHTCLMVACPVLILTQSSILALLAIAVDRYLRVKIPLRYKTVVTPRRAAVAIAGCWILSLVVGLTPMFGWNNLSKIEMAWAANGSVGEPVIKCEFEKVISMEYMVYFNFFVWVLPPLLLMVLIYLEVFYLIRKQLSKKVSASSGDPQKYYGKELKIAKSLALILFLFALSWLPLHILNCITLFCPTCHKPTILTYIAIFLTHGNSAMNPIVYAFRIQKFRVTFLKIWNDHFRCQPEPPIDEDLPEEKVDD
# strict inequality: Ki < 10 nM yields Y, everything else yields N

Below, 3 compounds whose answers are already recorded.
compound: CC(C)Cn1c(=O)n(C)c(=O)c2[nH]c(C3CCCC3)nc21
class: N
//
compound: Cn1c(=O)c2nc(-c3ccccc3)[nH]c2n(C)c1=O
class: N
//
compound: CCCCn1c(=O)c2nc(C3CCCC3)[nH]c2n(CCCC)c1=O
class: Y

For this compound, is Ki lower than 10 nM? CCCn1c(=O)c2nc(CC34CC5CC(CC(C5)C3)C4)[nH]c2n(CCC)c1=O
N

For this compound, is Ki lower than 10 nM? Cn1c(=O)c2nc(C3CCCC3)[nH]c2n(C)c1=O
N

For this compound, is Ki lower than 10 nM? CCCn1c(=O)c2nc(C3CC4CCC3C4)[nH]c2n(CCC)c1=O (stereo in doubt; 19)
Y

For this compound, is Ki lower than 10 nM? Nc1nc2ccc(Cl)cc2n2c(-c3ccccc3)nnc12
N

For this compound, is Ki lower than 10 nM? CCCn1c(=O)c2nc(C3CC4C=CC3C4)[nH]c2n(CCC)c1=O (stereo in doubt; 18)
Y

For this compound, is Ki lower than 10 nM? CCCn1c(=O)c2c(nc(C3CCCC3)n2C)n(CCC)c1=O
N

For this compound, is Ki lower than 10 nM? FC(F)(F)c1nnc2c(NC3CCCC3)nc3ccccc3n12
N
